Consider the following binders; for each one, report its koff.
target: recombinant human ICAM1 (human, UniProt P05362 28-480, limits assumed); assay: SPR (Biacore 8K), antibody captured, antigen injected
Sequence (P05362 28-480 limits assumed): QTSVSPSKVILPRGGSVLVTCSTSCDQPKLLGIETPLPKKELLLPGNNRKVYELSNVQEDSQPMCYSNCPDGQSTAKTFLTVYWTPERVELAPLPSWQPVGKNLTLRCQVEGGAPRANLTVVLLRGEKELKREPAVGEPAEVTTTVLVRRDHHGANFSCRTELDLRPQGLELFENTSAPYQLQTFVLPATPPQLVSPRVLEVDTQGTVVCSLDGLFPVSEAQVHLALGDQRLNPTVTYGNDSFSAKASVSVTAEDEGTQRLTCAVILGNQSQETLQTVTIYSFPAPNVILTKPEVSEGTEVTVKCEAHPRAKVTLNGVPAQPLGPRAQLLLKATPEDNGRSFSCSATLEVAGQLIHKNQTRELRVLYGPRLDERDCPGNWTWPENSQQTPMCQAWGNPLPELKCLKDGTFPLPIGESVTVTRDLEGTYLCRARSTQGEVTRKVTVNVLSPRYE
Give just the numeric value; s⁻¹ need not be written.

Can you look up the measured koff of 2E3 (antibody, human IgG1, kappa, V domains shown, Rabbit-human chimeric anti-ICAM1: rabbit VH and VL on human IgG1 and kappa constant regions) VH: QSVEESGGGLVKPGGTLTLTCTVSGFSLSSYAMGWVRQAPGKGLEYIGIIGSSGSTYYASWAKGRFTISKTSTTVDLKITSPTTEDTATYFCVRDPYDSFGDGYRLWGPGTLVTVSS VL: AYDMTQTPASVEVAVGGTVTIKCQASENIYRYLLWYQQKLGQRPSLLIYDASKLASGVPSRFKGSGSGTEFTLTISGVQSDDAATYYCQQAYSSSNVDNAFGGGTEVVVKR for me? 0.000149

Can you look up the measured koff of 14B3 (antibody, human IgG1, kappa, V domains shown, Rabbit-human chimeric anti-ICAM1: rabbit VH and VL on human IgG1 and kappa constant regions) VH: QSLEESGGDLVKPGASLTLTCTASGFSSSSGYYICWVRQAPGKGLEWIACIGAGSGAAYYASWAKGRFTMSKTSSTTVTLQMTSLTAADTATYFCARGGFVVGGGYGGYCFNLWGPGTLVTVSS VL: AQVLTQTASSVSATVGGTVTISCQSSESVDVNNLAWYQQKPGQPPKLLIYSASTLASGVPSRFKGSGSGTQFTLTVSDLESADAATYYCAGGYSGNIFAFGGGTAVVVKR for me? 0.00027

Can you look up the measured koff of 6G8 (antibody, human IgG1, kappa, V domains shown, Rabbit-human chimeric anti-ICAM1: rabbit VH and VL on human IgG1 and kappa constant regions) VH: QSVEESGGGLVKPGGTLTLTCTVSGFSLSSYAMGWVRQAPGKGLEYIGIIGSSGSTYYATWAKGRFTISKTSTTVDLKITSPTTEDTATYFCVRDPYDSYDAAYRLWGPGTLVTVSS VL: AYDMSQTPASVEVAVGGTVTIKCQASQSIYSYLSWYQQKPGQRPKLLIYDASKLASGVPSRFTGSGSGTEFTLTISGVQSDDAATYYCQQAYSSSNVDNVFGGGTEVVVKR for me? 0.000533

Can you look up the measured koff of 15D10 (antibody, human IgG1, kappa, V domains shown, Rabbit-human chimeric anti-ICAM1: rabbit VH and VL on human IgG1 and kappa constant regions) VH: QSVEESGGRLVTPGTPLTLTCTASGFSLNNYYMSWVRQAPGKGLEWIGIISDSDNTYYASWAKGRFTISKTSTTVDLKITSPTTEDTATYFCARDWSLDSSSGYYYYDMDLWGPGTLVTVSA VL: AYDMTQTPASMEVAVGGTVTIKCQASQNIHSWLAWFQQKPGQPPKRLIYKASTLASGVPSRFKGSGSGTQFTLTISGVQSDDAATYYCQQGYSRSDGEHVFGGGTEVVVKR for me? 0.000181

Can you look up the measured koff of 16E4 (antibody, human IgG1, kappa, V domains shown, Rabbit-human chimeric anti-ICAM1: rabbit VH and VL on human IgG1 and kappa constant regions) VH: QSVEESGGRLVTPGTPLTLTCTVSGFSLSSHAMGWVRQAPGKGLQYIGIIGSSGSTYYASWAKGRFTISKTSTTVDLRLTSPTTEDTATYFCVRDPYDSFGDAYRLWGPGTLVTVSS VL: AYDMTQTPASVEVAVGGTVTIKCQASQSIYSYCSWYQQKPGQRPKFLIYDASKLASGVPSRFKGSGSGTEFTLTISGMQSDDAATYYCQQAYSSSNVDNAFGGGTEVVVKR for me? 0.000134
